Values were extracted from PubChem BioAssay (NCI).

growth values by entry
Tested on: UACC-62 melanoma
test_summary: NCI-60 one-dose screen, 48 h (100 = growth as untreated, 0 = no growth, -100 = all killed)
experimental_context: 10 µM
Compounds without any hit were thinned out: in the full panel of roughly 83,000, 20% have a hit. The source made the active and inactive calls. How the source made its calls: active means growth percent below 10; inactive means the rest.

# input Return the recorded growth value; entry: COc1ccc(C(=O)C(CN(C)C)CN(C)C)cc1
# output 73.4% (inactive)

---
# input For the compound Cc1ccc(Sc2ccccc2N)cc1 , report growth.
# output 90.2% (inactive)

# input Give the reported growth for this compound. C=C1C(=O)OC2CC1C(OC(C)=O)C/C(C)=C/CC/C(C)=C\CCC2(C)O (stereo not drawn)
# output 44.5% (inactive)
